Origin of values: PubChem BioAssay

Assay overview: probe aLefty2 binding to arrayed compounds – biochemical, biotinylated probe, 635/667 nm fluorescence, primary screen (AID 1094);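 further: score merges spot fluorescence near 667 nm with spot signal-to-noise ratio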
Test context: small-molecule microarray, higher = more signal
# composite z-score binned as bottom range: < -0.09; center range: ≥ -0.09 and < 0.07; top range: ≥ 0.07

A selection of reference data follows.
CCOC(=O)C[C@H]1[C@H](OC(=O)Cc2ccc3c(c2)OCO3)[C@@H](NC(=O)Cc2ccc(OC)cc2)c2cc(OCCCO)ccc2N1C(=O)Cc1ccc(OC)cc1 :: center range
COC(=O)[C@]1(CCC(=O)OC(C)(C)C)N=C(c2ccc(OCCCO)cc2)O[C@@H]1c1ccccc1N=[N+]=[N-] :: center range
CO[C@H]1O[C@H](CO)[C@@H](OC(=O)Nc2ccc3c(c2)OCO3)[C@H](OC(=O)Nc2ccccc2-c2ccccc2)[C@H]1OC(=O)Nc1ccccc1-c1ccccc1 :: center range
COC(=O)[C@@]1(Cc2ccc(OC)cc2)[C@H]2c3cc(C(=O)N4CCCC4)n(Cc4ccc(Cl)c(C(F)(F)F)c4)c3C[C@H]2CN1C(=O)c1ccccc1 :: top range

QUERY: In plain terms, what class is C=C(CCCC)/C(=C/C[C@@H](OC(C)=O)c1ccc(CO)o1)c1cnc2ccccc2c1 ?
RESULT: bottom range

QUERY: In plain terms, what class is Cc1ccc(F)cc1S(=O)(=O)N[C@H]1CCN(Cc2ccc(OC(C)C)cc2)C1 ?
RESULT: bottom range

QUERY: In plain terms, what class is COc1ccc([Si](C)(C)[C@H]2[C@H](CC(=O)N3CCC[C@H]3CO)O[C@@]3(C(=O)N(Cc4ccc(N5CCCCC5=O)cc4)c4ccccc43)[C@@H]2C)cc1 ?
RESULT: bottom range

QUERY: In plain terms, what class is CCOC(=O)C1=CC[C@@H](c2ccccc2)N(S(=O)(=O)c2ccc(C)cc2)[C@H]1c1ccccc1I ?
RESULT: top range

QUERY: In plain terms, what class is O=C1C2C=CC(C(O)c3cccs3)N(Nc3ccc([N+](=O)[O-])cc3)C2C(=O)N1c1ccccc1 (stereo not drawn) ?
RESULT: center range

QUERY: In plain terms, what class is C=CCC(OC(C)=O)[C@@H]1[C@@H](N(Cc2cc3ccccc3o2)C(=O)Cc2ccc(OC)cc2)c2cc(OCCCO)ccc2N1C(=O)c1ccc2ccccc2n1 (stereo partly drawn) ?
RESULT: center range

QUERY: In plain terms, what class is CCCCC(O)C1C=CC2C(=O)N(c3ccccc3)C(=O)C2N1Nc1ccccc1 (stereo not drawn) ?
RESULT: center range

QUERY: In plain terms, what class is COc1ccc([Si](C)(C)[C@@H]2[C@@H](CC(=O)N(CCO)Cc3ccccc3)O[C@]3(C(=O)N(Cc4ccc(I)cc4)c4ccccc43)[C@H]2C)cc1 ?
RESULT: top range

QUERY: In plain terms, what class is CC[C@@H]1C=C(C(=O)O)[C@H](c2ccc(OC)cc2)N1S(=O)(=O)c1ccc(C)cc1 ?
RESULT: center range

QUERY: In plain terms, what class is COc1ccc(C(=O)Nc2cccc(CN3C(=O)[C@]4(O[C@H](CC(=O)N5Cc6ccccc6C[C@H]5CO)[C@@H]([Si](C)(C)c5ccc(OC)cc5)[C@@H]4C)c4ccccc43)c2)cc1 ?
RESULT: bottom range

QUERY: In plain terms, what class is Cc1ccc(S[C@]2(C(=O)NCCCN(C)C)CC(=O)N(Cc3ccccc3C(F)(F)F)[C@@H]2c2ccc(CO)cc2I)cc1 ?
RESULT: bottom range

###

Test system: Lefty1
Assay overview: Lefty1 protein binding to printed compounds – biochemical, small-molecule microarray, 635/667 nm fluorescence, primary screen (AID 1139)
Test context: fluorescence 635/667, higher = more signal
Entries and their composite z-score
Give a plain numeric answer without units written out.

# count of solved cases: 2
C=CC[C@@]1(C(=O)N(C)C)N=C(c2ccc(OCCCO)cc2)O[C@@H]1c1ccccc1CN=[N+]=[N-] :: 0.561
CO[C@H]1O[C@H](CO)[C@@H](OC(=O)Nc2ccccc2-c2ccccc2)[C@H](OC(=O)Nc2ccccc2)[C@H]1OC(=O)Nc1ccccc1 :: 0.719

QUERY: I am curious: what composite z-score value has been reported for C=CCC(OC(C)=O)[C@@H]1[C@@H](N(Cc2cccc3ccccc23)C(=O)Cc2ccc(OC)cc2)c2cc(OCCCO)ccc2N1C(=O)c1ccc2ccccc2c1 (some centres not stated) ?
RESULT: 0.143

QUERY: I am curious: what composite z-score value has been reported for NC(=O)NCC#Cc1ccc2c(c1)[C@]1(C(=O)N2)[C@H](c2ccc(OCCO)cc2)N2[C@H](c3ccccc3)[C@H](c3ccccc3)OC(=O)[C@H]2[C@@H]1C(=O)NC[C@H](O)c1ccccc1 ?
RESULT: 0.395

QUERY: I am curious: what composite z-score value has been reported for COC(=O)[C@@]1(Cc2ccc(F)cc2)[C@H]2c3cc(C(=O)N(C)C)n(CCc4ccc(O)c(O)c4)c3C[C@H]2CN1C(=O)c1ccccc1 ?
RESULT: -0.08

QUERY: I am curious: what composite z-score value has been reported for COc1ccc([Si](C)(C)[C@H]2[C@H](CC(=O)N3Cc4ccccc4C[C@H]3CO)O[C@@]3(C(=O)N(C)c4c(Br)cc(C)cc43)[C@@H]2C)cc1 ?
RESULT: 1.58

QUERY: I am curious: what composite z-score value has been reported for CCCCCC1=C2CNC(CC(C)C)(C(=O)OC)C=C2C(C)C1=O (configuration not stated) ?
RESULT: -0.145

QUERY: I am curious: what composite z-score value has been reported for CC(=O)c1ccc(C(O)C2C=CC3C(=O)N(c4ccccc4)C(=O)C3N2Nc2ccc(C(C)C)cc2)cc1 (configuration not stated) ?
RESULT: -0.212

QUERY: I am curious: what composite z-score value has been reported for O=C1C[C@]2(c3ccc([N+](=O)[O-])cc3)C(=O)N(C3CC3)c3cc(CO)ccc3[C@H]2N1C1CCCCC1 ?
RESULT: -0.0446

QUERY: I am curious: what composite z-score value has been reported for O=C(NC1CC1)[C@@H]1c2ccccc2C(=O)N(Cc2cc(C(F)(F)F)cc(C(F)(F)F)c2)[C@H]1c1ccc(CO)cc1 ?
RESULT: -0.291

QUERY: I am curious: what composite z-score value has been reported for Cc1ccc(C(C)CC(O)C2C=CC3C(=O)N(C)C(=O)C3N2Nc2ccccc2)o1 (configuration not stated) ?
RESULT: 0.497

QUERY: I am curious: what composite z-score value has been reported for COCCn1c(C(=O)N(C)C)cc2c1C[C@H]1CN(C(=O)c3ccccc3)[C@@](Cc3ccc(OC)cc3)(C(=O)OC)[C@@H]21 ?
RESULT: -0.201

QUERY: I am curious: what composite z-score value has been reported for CC(C)(C)N1CC=CC23O[C@@H]4C=CCCOC(=O)C4[C@H]2C(=O)N(CCCCCCO)[C@@H]3C1=O (some centres not stated) ?
RESULT: -0.0747

QUERY: I am curious: what composite z-score value has been reported for C=CCOC(=O)[C@H]1[C@@H]2C(=O)O[C@@H](c3ccccc3)[C@@H](c3ccccc3)N2[C@@H](c2ccc(OCCOC(=O)[C@@H]3C[C@@H]4C(=O)N[C@@H](CCCCNC(C)=O)C(=O)N4[C@@H]3c3cccc(OCCO)c3)cc2)[C@]12C(=O)Nc1ccccc12 ?
RESULT: 0.581

QUERY: I am curious: what composite z-score value has been reported for CC(=O)NCCCC[C@@H]1NC(=O)[C@H]2C[C@@H](C(=O)NCCCCCCNC(=O)CS)[C@@H](c3cccc(OCCO)c3)N2C1=O ?
RESULT: 0.0938

QUERY: I am curious: what composite z-score value has been reported for CCCNC(=O)[C@@]1(Sc2ccc(C)cc2)CC(=O)N(Cc2ccccc2Cl)[C@@H]1c1ccc(CO)cc1I ?
RESULT: -0.896

###

Assay overview: binders of probe aHhip on microarray, primary screen, stem cell growth factor project, biochemical, small-molecule microarray, fluorescence 635/667 (AID 1087);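 further: score merges spot fluorescence at 667nm with spot signal to noise ratio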
Test context: higher = more signal
Value type: composite z-score
Give a plain numeric answer without units written out.

QUERY: I am curious: what composite z-score value has been reported for COc1ccc(C(O)C2C=CC3C(=O)N(C)C(=O)C3N2N(c2ccccc2)c2ccccc2)cc1 (configuration not stated) ?
RESULT: 0.0972

QUERY: I am curious: what composite z-score value has been reported for COc1ccc(CCNC(=O)[C@@H]2c3ccccc3C(=O)N(Cc3ccccc3OC)[C@H]2c2ccc(CO)cc2)cc1 ?
RESULT: -0.266

QUERY: I am curious: what composite z-score value has been reported for CC(C)N1C(=O)c2ccccc2[C@](C)(C(=O)NCC(F)(F)F)[C@@H]1c1ccc(CO)cc1 ?
RESULT: -0.105

###

System: Human papillomavirus type 1a E7 protein (residues 1-88)
Assay overview: HPV1a E7 small-molecule binders, primary screen, biochemical, small-molecule microarray, residues 1-88, 635 nm (AID 1129)
Test context: small-molecule microarray binding, fluorescence 635 nm; higher = more signal
Entries and their composite z-score
Give a plain numeric answer without units written out.

COC(=O)C1=CC(CCCO)=CC(c2cccs2)N(Cc2cc3c(cc2Br)OCO3)C=C1C(=O)OC (stereo not given) :: 1.25

QUERY: I am curious: what composite z-score value has been reported for O=C(N1CCOCC1)[C@@]1(Cc2ccccc2)COC(c2ccc(OCCCO)cc2)=N1 ?
RESULT: 1.23
